# system under test: T1, neuropeptide Y5 receptor (Homo sapiens (Human)), Q15761
# T1 chain: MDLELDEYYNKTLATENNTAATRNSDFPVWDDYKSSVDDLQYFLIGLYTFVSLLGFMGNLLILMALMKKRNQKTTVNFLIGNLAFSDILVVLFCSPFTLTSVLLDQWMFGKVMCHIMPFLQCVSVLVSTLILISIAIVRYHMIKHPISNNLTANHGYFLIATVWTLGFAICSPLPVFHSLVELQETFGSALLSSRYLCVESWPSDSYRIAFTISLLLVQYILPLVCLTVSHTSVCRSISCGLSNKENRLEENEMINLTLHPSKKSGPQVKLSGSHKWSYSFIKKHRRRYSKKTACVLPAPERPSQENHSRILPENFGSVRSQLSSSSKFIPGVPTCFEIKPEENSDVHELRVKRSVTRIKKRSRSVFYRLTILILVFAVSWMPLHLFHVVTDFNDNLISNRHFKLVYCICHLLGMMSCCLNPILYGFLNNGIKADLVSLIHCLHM
# experiment: radioligand competition, [125I]-hPYY, Y5/CHO-K1 membranes
observation type: Y5RBA (nM)

Solved entries (count: 4):
[[record]]
binder = "YPIKPEAPGEDASPDELAQYAADLRRYINMLTRQRY (modifications not checked) [SEQ ID NO 342]"
number = 1.4

[[record]]
binder = "APLEPVYPGDNATPEQMNKYYASLRHYLNLVTRQRY (modifications not checked) [SEQ ID NO 306]"
number = 0.27

[[record]]
binder = "YPIKPEAPGEDASPEELAQYAADLRRYINMLTRPRY (modifications not checked) [SEQ ID NO 309]"
number = 1.5

[[record]]
binder = "APLEPVYPGDNATPEQMNRYYASLRHYLNLAPRQRY (modifications not checked) [SEQ ID NO 289]"
number = 0.83


[P] YPIKPEAPGEDASPEELNQYAADLRRYINMLTRQRY (modifications not checked) [SEQ ID NO 316]
[Q] APLEPVYPGDNATPEQMNKYYASLRHYLNLVTRQRY (modifications not checked) [SEQ ID NO 293]
Query: Between P and Q , which one shows the larger Y5RBA value? // respond with label for picked entry
Result: P
(P: 1.1 nM, Q: 0.48 nM)

All values here come from patent US20100099619A1.
